- Test system: SK-MEL-2
- Assay method text: Cytotoxicity against human SK-MEL-2 cells by SRB assay
- Type: functional, cell-based
pIC50: −log10 of the molar value.
Measured metric: pIC50

Log: SK-MEL-2, compound COc1ccc(C[C@@H]2COc3cc(OC)c(C)c(O)c3C2=O)c(O)c1 , pIC50 = 6.18 to 6.29

====

- Tested on: Lu1
- Assay method text: Cytotoxicity against human Lu1 cells by SRB assay
- Type: functional, cell-based
Measured metric: IC50

response.value for COc1ccc(C[C@@H]2COc3cc(OC)c(C)c(O)c3C2=O)c(O)c1 (field: IC50) = 510 to 660 nM

Reference for the values: ChEMBL document CHEMBL4177629
